Give measured GI50 for each item. Keep answers brief.
# System: RXF 393
# PROTOCOL_DESCRIPTION: NCI tumour cell line growth inhibition, 48 h
The source made the active and inactive calls. Cut-off read from the data, not from the text of the source: active = GI50 up to about 1.1 µM and inactive = higher.

Briefly, GI50 measured for CCSc1cc(=O)n(C)c(=O)n1C : > 100 µM (inactive)

Briefly, GI50 measured for CC(=O)c1ccc(Nc2c3c(nc4ccccc24)CCCC3)cc1 : 20.5 µM (inactive)

Briefly, GI50 measured for COc1ccc(C2C3COc4ccccc4C3=NN2c2ccccc2)cc1 (stereo not given) : > 100 µM (inactive)

Briefly, GI50 measured for CC(=O)Nc1oc(C)nc1C#N : > 100 µM (inactive)

Briefly, GI50 measured for COc1ccc(C(OCC2OC(n3cc(C)c(=O)[nH]c3=O)CC2n2cc(Cn3cc(Cl)c(=O)[nH]c3=O)nn2)(c2ccccc2)c2ccccc2)cc1 (stereo not given) : > 100 µM (inactive)

Briefly, GI50 measured for O=C1N/C(=N/N=C\c2ccccc2)N/C1=C/c1ccccc1 : 30 µM (inactive)

Briefly, GI50 measured for O=C(O)C1CCc2ccc3ccccc3c2C1c1cccc2ccccc12 (stereo not given) : 19 µM (inactive)

Briefly, GI50 measured for COC(=O)CCC1CCc2c(OC)ccc(O)c2C1=O (stereo not given) : > 100 µM (inactive)

Briefly, GI50 measured for Nc1nc2ncn(CC(O)COC(=O)c3ccccc3)c2c(=O)[nH]1 (stereo not given) : > 100 µM (inactive)

Briefly, GI50 measured for N#C[BH2-][n+]1cn(C2CC(O)C(COP(=O)(O)OC3CC(n4ccc(N)nc4=O)OC3CO)O2)c2nc(N)[nH]c(=O)c21 (stereo not given) : > 100 µM (inactive)

// provenance: ChEMBL document CHEMBL1201862
